Attribute: solubility in G1/S (log2)
# Tested on: HeLa Kyoto
# experiment description: solubility in G1/S (NP-40 vs SDS abundance) (log2 ratio); higher = more soluble
# condition details: cell cycle stage: G1/S

{"columns": ["sequence", "tgt", "solubility in G1/S (log2)"],
 "data": [
  ["MARFALTVVRHGETRFNKEKIIQGQGVDEPLSETGFKQAAAAGIFLNNVKFTHAFSSDLMRTKQTMHGILERSKFCKDMTVKYDSRLRERKYGVVEGKALSELRAMAKAAREECPVFTPPGGETLDQVKMRGIDFFEFLCQLILKEADQKEQFSQGSPSNCLETSLAEIFPLGKNHSSKVNSDSGIPGLAASVLVVSHGAYMRSLFDYFLTDLKCSLPATLSRSELMSVTPNTGMSLFIINFEEGREVKPTVQCICMNLQDHLNGLTETR [TIGAR]", "HeLa Kyoto", 0.348],
  ["MQNYKYDKAIVPESKNGGSPALNNNPRRSGSKRVLLICLDLFCLFMAGLPFLIIETSTIKPYHRGFYCNDESIKYPLKTGETINDAVLCAVGIVIAILAIITGEFYRIYYLKKSRSTIQNPYVAALYKQVGCFLFGCAISQSFTDIAKVSIGRLRPHFLSVCNPDFSQINCSEGYIQNYRCRGDDSKVQEARKSFFSGHASFSMYTMLYLVLYLQARFTWRGARLLRPLLQFTLIMMAFYTGLSRVSDHKHHPSDVLAGFAQGALVACCIVFFVSDLFKTKTTLSLPAPAIRKEILSPVDIIDRNNHHNMM [PLPP3]", "HeLa Kyoto", -0.0783],
  ["MLDSLLALGGLVLLRDSVEWEGRSLLKALVKKSALCGEQVHILGCEVSEEEFREGFDSDINNRLVYHDFFRDPLNWSKTEEAFPGGPLGALRAMCKRTDPVPVTIALDSLSWLLLRLPCTTLCQVLHAVSHQDSCPGDSSSVGKVSVLGLLHEELHGPGPVGALSSLAQTEVTLGGTMGQASAHILCRRPRQRPTDQTQWFSILPDFSLDLQEGPSVESQPYSDPHIPPVDPTTHLTFNLHLSKKEREARDSLILPFQFSSEKQQALLRPRPGQATSHIFYEPDAYDDLDQEDPDDDLDI [ELP5]", "HeLa Kyoto", 0.313],
  ["MVELMFPLLLLLLPFLLYMAAPQIRKMLSSGVCTSTVQLPGKVVVVTGANTGIGKETAKELAQRGARVYLACRDVEKGELVAKEIQTTTGNQQVLVRKLDLSDTKSIRAFAKGFLAEEKHLHVLINNAGVMMCPYSKTADGFEMHIGVNHLGHFLLTHLLLEKLKESAPSRIVNVSSLAHHLGRIHFHNLQGEKFYNAGLAYCHSKLANILFTQELARRLKGSGVTTYSVHPGTVQSELVRHSSFMRWMWWLFSFFIKTPQQGAQTSLHCALTEGLEILSGNHFSDCHVAWVSAQARNETIARRLWDVSCDLLGLPID [RDH11]", "HeLa Kyoto", -0.0695]
]}

* * *

# Tested on: HeLa Kyoto
# experiment description: melting temperature (median over replicates), in situ; higher = more thermally stable
# condition details: cell cycle stage: G1/S
As shown below, each of these sequences has a reported melting temperature value.
readout label: melting temperature (°C)

{"columns": ["sequence", "readout label", "observed value"],
 "data": [
  ["MIRNGRGAAGGAEQPGPGGRRAVRVWCDGCYDMVHYGHSNQLRQARAMGDYLIVGVHTDEEIAKHKGPPVFTQEERYKMVQAIKWVDEVVPAAPYVTTLETLDKYNCDFCVHGNDITLTVDGRDTYEEVKQAGRYRECKRTQGVSTTDLVGRMLLVTKAHHSSQEMSSEYREYADSFGKCPGGRNPWTGVSQFLQTSQKIIQFASGKEPQPGETVIYVAGAFDLFHIGHVDFLEKVHRLAERPYIIAGLHFDQEVNHYKGKNYPIMNLHERTLSVLACRYVSEVVIGAPYAVTAELLSHFKVDLVCHGKTEIIPDRDGSDPYQEPKRRGIFRQIDSGSNLTTDLIVQRIITNRLEYEARNQKKEAKELAFLEAARQQAAQPLGERDGDF [PCYT2]", "melting temperature", 54.1],
  ["MAASCVLLHTGQKMPLIGLGTWKSEPGQVKAAVKYALSVGYRHIDCAAIYGNEPEIGEALKEDVGPGKAVPREELFVTSKLWNTKHHPEDVEPALRKTLADLQLEYLDLYLMHWPYAFERGDNPFPKNADGTICYDSTHYKETWKALEALVAKGLVQALGLSNFNSRQIDDILSVASVRPAVLQVECHPYLAQNELIAHCQARGLEVTAYSPLGSSDRAWRDPDEPVLLEEPVVLALAEKYGRSPAQILLRWQVQRKVICIPKSITPSRILQNIKVFDFTFSPEEMKQLNALNKNWRYIVPMLTVDGKRVPRDAGHPLYPFNDPY [AKR1A1]", "melting temperature", 52.1],
  ["MAHQTGIHATEELKEFFAKARAGSVRLIKVVIEDEQLVLGASQEPVGRWDQDYDRAVLPLLDAQQPCYLLYRLDSQNAQGFEWLFLAWSPDNSPVRLKMLYAATRATVKKEFGGGHIKDELFGTVKDDLSFAGYQKHLSSCAAPAPLTSAERELQQIRINEVKTEISVESKHQTLQGLAFPLQPEAQRALQQLKQKMVNYIQMKLDLERETIELVHTEPTDVAQLPSRVPRDAARYHFFLYKHTHEGDPLESVVFIYSMPGYKCSIKERMLYSSCKSRLLDSVEQDFHLEIAKKIEIGDGAELTAEFLYDEVHPKQHAFKQAFAKPKGPGGKRGHKRLIRGPGENGDDS [TWF2]", "melting temperature", 53.6]
]}
